# Tested on: biotinyl-Trp-oxazolone
# assay-overview: self-aminoacylation, catalytic enhancement (BWO) (fold over background); higher = more active; k-Seq, kA / k0A0; sequences stand for … in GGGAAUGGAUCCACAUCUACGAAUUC…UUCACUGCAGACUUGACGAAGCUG
Variants at the floor of the assay were thinned out.
Quick list: self-aminoacylation per entry.
Just the number, please, no unit attached.

AUUACCUUAGUCAUCGAGUGA [Fam2.1 aminoacylation ribozyme variant] = 5.48
CCUCACUCCAAGCAAUCGGUC [Fam1B.1 aminoacylation ribozyme variant] = 2.39
CCCCACUUCAAACAAUCGGUC [Fam1B.1 aminoacylation ribozyme variant] = 61.2

Param item = CUACUUCAAACAAUCAGUCUC [Fam1A.1 aminoacylation ribozyme variant] ; retrieve measured self-aminoacylation. 8

Proceed to AAGUUGGCUUAUAGUCGCAAG [Fam3.1 aminoacylation ribozyme variant] 1.7

---

# System: biotinyl-Ile-oxazolone
# assay-overview: self-aminoacylation, catalytic enhancement (BIO) (fold over background); higher = more active; k-Seq, kA / k0A0; sequences stand for … in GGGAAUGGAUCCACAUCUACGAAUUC…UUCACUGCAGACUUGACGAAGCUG
Variants at the floor of the assay were thinned out.
recorded-metric: self-aminoacylation
Just the number, please, no unit attached.

CCACACUUCAAGAUAUCGGUC [Fam1B.1 aminoacylation ribozyme variant] = 0.774
AGUACCCGGGUCAUCGAGUGA [Fam2.1 aminoacylation ribozyme variant] = 4.51
AAGUUGGUUAAUAGUCGCAAG [Fam3.1 aminoacylation ribozyme variant] = 1.4

# query: self-aminoacylation | item CUACUUGAAUCAAUCGGUCUG [Fam1A.1 aminoacylation ribozyme variant] | system: biotinyl-Ile-oxazolone 0.857

Proceed to AUUCCCCUGGCCAUCGAGUGA [Fam2.1 aminoacylation ribozyme variant] 3.34

Proceed to GUUCUUCAAACAAUCGGUCUG [Fam1A.1 aminoacylation ribozyme variant] 0.863

---

# Tested on: biotinyl-Ile-oxazolone
# assay-overview: self-aminoacylation, catalytic enhancement (BIO) (fold over background); higher = more active; k-Seq, kA / k0A0; sequences stand for … in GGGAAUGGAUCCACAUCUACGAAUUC…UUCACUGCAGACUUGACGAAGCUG
Fewer inactive variants are shown than the library holds.
Quick list: self-aminoacylation per entry.

Check out these entries, answers already filled in.
GAGUUUGCCAAUAGUCGCAAG [Fam3.1 aminoacylation ribozyme variant] = 1.7
GUUCACCUAGGUCAUCGCGUG [Fam2.2 aminoacylation ribozyme variant] = 6.72
AUUACCCUGGGCAUCGCGUGA [Fam2.1 aminoacylation ribozyme variant] = 3.74
CUUAACCUGGUCAUCGAGUGA [Fam2.1 aminoacylation ribozyme variant] = 2.9
AUUAACCUAGGUCAUAGGGUG [Fam2.2 aminoacylation ribozyme variant] = 1.29
CCACAGUUCAGGCAAUCGGUC [Fam1B.1 aminoacylation ribozyme variant] = 2.02
AAGUUUGCUCAUAGUCCCAAG [Fam3.1 aminoacylation ribozyme variant] = 0.902
AUUCAUCUAGGUCACCGGGUG [Fam2.2 aminoacylation ribozyme variant] = 3.85

# query: self-aminoacylation | item CCACAUUUCAAGCAAUUGGUC [Fam1B.1 aminoacylation ribozyme variant] | system: biotinyl-Ile-oxazolone 1.22

---

# Tested on: biotinyl-Leu-oxazolone
# assay-overview: self-aminoacylation, catalytic enhancement (BLO) (fold over background); higher = more active; k-Seq, kA / k0A0; sequences stand for … in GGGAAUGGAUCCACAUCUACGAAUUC…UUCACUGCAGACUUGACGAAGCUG
Variants at the floor of the assay were thinned out.
recorded-metric: self-aminoacylation
Just the number, please, no unit attached.

Check out these entries, answers already filled in.
CUAUUUCAAACAAUGGGUCUG [Fam1A.1 aminoacylation ribozyme variant] = 0.863
GUUCGCCUAGGUCAUCGGGUG [Fam2.2 aminoacylation ribozyme variant] = 22.8
AUGCACCUAGGUCAUCGGGUU [Fam2.2 aminoacylation ribozyme variant] = 4.54
AUUACCCUGGCCAGCGAGUGA [Fam2.1 aminoacylation ribozyme variant] = 4.29
AUUACCCUGGUCAUACAGUGA [Fam2.1 aminoacylation ribozyme variant] = 4.57

Param item = UCUCACCUAGGUCAUCGGGUG [Fam2.2 aminoacylation ribozyme variant] ; retrieve measured self-aminoacylation. 3.81

Proceed to AUUCACAUAGGUCAUAGGGUG [Fam2.2 aminoacylation ribozyme variant] 2.3

Proceed to CAACAGUUCAAGCAAUCGGUC [Fam1B.1 aminoacylation ribozyme variant] 1.38

Proceed to AAGUAUGCUAAUAGUUGCAAG [Fam3.1 aminoacylation ribozyme variant] 1.11

---

Quick list: self-aminoacylation per entry.
# System: biotinyl-Ile-oxazolone
# assay-overview: self-aminoacylation, catalytic enhancement (BIO) (fold over background); higher = more active; k-Seq, kA / k0A0; sequences stand for … in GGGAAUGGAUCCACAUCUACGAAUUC…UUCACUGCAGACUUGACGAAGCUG
Variants at the floor of the assay were thinned out.
Just the number, please, no unit attached.

# query: self-aminoacylation | item CUACUUCAAACGAUCGGUCUG [Fam1A.1 aminoacylation ribozyme variant] | system: biotinyl-Ile-oxazolone 0.65

---

Quick list: self-aminoacylation per entry.
# System: biotinyl-Phe-oxazolone
# assay-overview: self-aminoacylation, catalytic enhancement (BFO) (fold over background); higher = more active; k-Seq, kA / k0A0; sequences stand for … in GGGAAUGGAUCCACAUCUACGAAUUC…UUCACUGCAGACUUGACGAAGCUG
Variants at the floor of the assay were thinned out.
Just the number, please, no unit attached.

# query: self-aminoacylation | item AAACACCUAGGUCAUCGGGUG [Fam2.2 aminoacylation ribozyme variant] | system: biotinyl-Phe-oxazolone 23.9

Proceed to AUUGACCUAGGUCAUGGGGUG [Fam2.2 aminoacylation ribozyme variant] 17

---

# System: biotinyl-Phe-oxazolone
# assay-overview: self-aminoacylation, catalytic enhancement (BFO) (fold over background); higher = more active; k-Seq, kA / k0A0; sequences stand for … in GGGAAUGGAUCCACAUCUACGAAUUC…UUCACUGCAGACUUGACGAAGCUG
Fewer inactive variants are shown than the library holds.
recorded-metric: self-aminoacylation

AUUACCCUGGUGAUCGAUUGA [Fam2.1 aminoacylation ribozyme variant] = 0.845
CCAGACUUCAAGCAACCGGUC [Fam1B.1 aminoacylation ribozyme variant] = 1.53
GUACCUCAAACAAUCGGUCUG [Fam1A.1 aminoacylation ribozyme variant] = 2.42

Param item = CCACACUUCAAGCAACCGCUC [Fam1B.1 aminoacylation ribozyme variant] ; retrieve measured self-aminoacylation. 8.07

Proceed to CCACACUUCAAGCGAUCGGUC [Fam1B.1 aminoacylation ribozyme variant] 1.72

---

# Test system: biotinyl-Val-oxazolone
# assay-overview: self-aminoacylation, catalytic enhancement (BVO) (fold over background); higher = more active; k-Seq, kA / k0A0; sequences stand for … in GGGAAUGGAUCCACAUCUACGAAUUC…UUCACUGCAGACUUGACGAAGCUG
Variants at the floor of the assay were thinned out.
Cut-off 2 on self-aminoacylation, inclusive. At or above means true; below means false.

As a guide, the following entries are already answered.
CUAGUUCAAACAAUGGGUCUG [Fam1A.1 aminoacylation ribozyme variant] = false
CCACCCUUCAAGCAAUCGGUC [Fam1B.1 aminoacylation ribozyme variant] = false
AAGUUUGCUAAUAUUCGCAGG [Fam3.1 aminoacylation ribozyme variant] = false

Textbook exercise: given the entry CUACUUCAAACAAUCGUCCUG [Fam1A.1 aminoacylation ribozyme variant] , state whether its self-aminoacylation is greater than or equal to 2. false

Proceed to CUACACUUCAAGCAAUCAGUC [Fam1B.1 aminoacylation ribozyme variant] false

Proceed to AGGUUUGCUAUUAGUCGCAAG [Fam3.1 aminoacylation ribozyme variant] false

Proceed to CUACACUUCAAGCAAUAGGUC [Fam1B.1 aminoacylation ribozyme variant] false

Proceed to AAGUUUGCUAGUUGUCGCAAG [Fam3.1 aminoacylation ribozyme variant] false

Proceed to CCACACUUCAAGCCAUCGGUG [Fam1B.1 aminoacylation ribozyme variant] true

Proceed to CCACAUUUCAAGCAAUUGGUC [Fam1B.1 aminoacylation ribozyme variant] false

Proceed to AAGUUGGCUAAGAGUCGCAAG [Fam3.1 aminoacylation ribozyme variant] false

Proceed to AUUCACCUAGGUUAUUGGGUG [Fam2.2 aminoacylation ribozyme variant] true

Proceed to ACUCACCUAGGUCAUCGGAUG [Fam2.2 aminoacylation ribozyme variant] false

Proceed to AUUCUCCUAGGUAAUCGGGUG [Fam2.2 aminoacylation ribozyme variant] true

Proceed to CCACACUUCAACCAUUCGGUC [Fam1B.1 aminoacylation ribozyme variant] false

Proceed to AUUCACUGAGGUCAUCGGGUG [Fam2.2 aminoacylation ribozyme variant] true

Proceed to AUUCACAUAGGUCAUAGGGUG [Fam2.2 aminoacylation ribozyme variant] false

Proceed to UUUAUCCUGGUCAUCGAGUGA [Fam2.1 aminoacylation ribozyme variant] true

Proceed to CCACACCUCAAGCAGUCGGUC [Fam1B.1 aminoacylation ribozyme variant] false

Proceed to AAUUAUGCUAAUAGUCGCAAG [Fam3.1 aminoacylation ribozyme variant] false

Proceed to AAGCUUGCUAAUGGUCGCAAG [Fam3.1 aminoacylation ribozyme variant] false

Proceed to AAGUUUUCUAAUAGUCGCGAG [Fam3.1 aminoacylation ribozyme variant] false

Proceed to AUUACCCUGGUCAUCGAAUAA [Fam2.1 aminoacylation ribozyme variant] false

Proceed to CCACAAUUCAAGUAAUCGGUC [Fam1B.1 aminoacylation ribozyme variant] false

Proceed to AUAACCCUCGUCAUCGAGUGA [Fam2.1 aminoacylation ribozyme variant] true

Proceed to AUUCACCUAGGUUAUCGAGUG [Fam2.2 aminoacylation ribozyme variant] false

Proceed to AUUACCCUGGUGAUCCAGUGA [Fam2.1 aminoacylation ribozyme variant] true

Data provenance: the supplement of paper PMC9233669
